Entry source: patent US4515951A

protocol.notes: in vivo
settings: mouse, iv
Cut-off 100 mg/kg on LD50 at 24 h: below means MET, at or above means NOT MET.

compound: O=C1C=C2CN(Cc3ccccc3Cl)CCC2S1 (centres unmarked)
label: NOT MET
--
compound: N#Cc1ccccc1CN1CCc2sccc2C1 [Reference compound B, reference compound]
label: MET
--
compound: N#Cc1ccccc1CN1CCC2SC(=O)C=C2C1 (centres unmarked)
label: NOT MET
--
compound: O=C1C=C2CN(Cc3ccccc3Br)CCC2S1 (centres unmarked)
label: NOT MET
--
compound: CCC(c1ccccc1Cl)N1CCC2SC(=O)C=C2C1 (centres unmarked)
label: NOT MET

----------
protocol.notes: in vivo
settings: mouse, iv

compound: O=C1C=C2CN(Cc3ccccc3)CCC2S1 (centres unmarked) [Derivative 2]
unit: mg/kg
LD50 at 24 h: 116
--
compound: O=C1C=C2CN(Cc3ccc(Cl)cc3)CCC2S1 (centres unmarked) [Derivative 3]
unit: mg/kg
LD50 at 24 h: 125
--
compound: Cc1ccccc1CN1CCC2SC(=O)C=C2C1 (centres unmarked) [Derivative 4]
unit: mg/kg
LD50 at 24 h: 110
--
compound: O=C1C=C2CN(Cc3ccccc3[N+](=O)[O-])CCC2S1 (centres unmarked) [Derivative 8]
unit: mg/kg
LD50 at 24 h: 278
--
compound: CC(c1ccccc1Cl)N1CCC2SC(=O)C=C2C1 (centres unmarked) [Derivative 5]
unit: mg/kg
LD50 at 24 h: 286

----------
Test system: platelet aggregation by collagen
protocol.notes: inhibiting action on platelet aggregation by collagen (COLLAGEN TEST), plasma of orally treated rats
Format: in vivo, Wistar rats
settings: Rattus norvegicus, po, 3 h, read-out: Percentage inhibition of platelet aggregation (collagen test)
Description: A sample of blood is taken from the jugular vein of Wistar rats, which have previously been treated with the compound to be tested. […] 0.4 ml. of plasma is treated in a siliconised tube provided with a bar magnet which is also siliconised. The tube is introduced into an aggregometer connected to an apparatus with which variations in optical density can be recorded. […]
# Lookup of reported inhibition at 100 mg/kg keyed by entry
measured.property: inhibition at 100 mg/kg

compound: O=C1C=C2CN(Cc3ccccc3)CCC2S1 (centres unmarked) [Derivative 2]
val: 87.8%
--
compound: O=C1C=C2CN(Cc3ccccc3Br)CCC2S1 (centres unmarked) [Derivative 9]
val: 88.6%
--
compound: O=C1C=C2CN(Cc3ccc(Cl)cc3)CCC2S1 (centres unmarked) [Derivative 3]
val: 88.1%
--
compound: Cc1ccccc1CN1CCC2SC(=O)C=C2C1 (centres unmarked) [Derivative 4]
val: 88.2%
--
compound: O=C1C=C2CN(Cc3ccccc3Cl)CCC2S1 (centres unmarked) [Derivative 1]
val: 89.8%

----------
Test system: platelet aggregation by ADP
protocol.notes: inhibiting action on platelet aggregation by ADP (ADP TEST), plasma of orally treated rats
Type: in vivo, Wistar rats
settings: Rattus norvegicus, 5 mg/kg oral, single dose, 3 hours after treatment, relative to control, read-out: Percentage inhibition of platelet aggregation (ADP test)
Reported inhibition at 5 mg/kg values for the following compounds.
measured.property: inhibition at 5 mg/kg (%)

compound: N#Cc1ccccc1CN1CCc2sccc2C1 [Reference compound B, reference compound]
measured.property: inhibition at 5 mg/kg
val: 0
--
compound: N#Cc1ccccc1CN1CCC2SC(=O)C=C2C1 (stereo not drawn)
measured.property: inhibition at 5 mg/kg
val: 47.6
--
compound: CCC(c1ccccc1Cl)N1CCC2SC(=O)C=C2C1 (stereo not drawn)
measured.property: inhibition at 5 mg/kg
val: 48.7
--
compound: CC(c1ccccc1Cl)N1CCC2SC(=O)C=C2C1 (stereo not drawn)
measured.property: inhibition at 5 mg/kg
val: 48.4
--
compound: O=C1C=C2CN(Cc3ccccc3[N+](=O)[O-])CCC2S1 (stereo not drawn)
measured.property: inhibition at 5 mg/kg
val: 48
--
compound: Clc1ccccc1CN1CCc2sccc2C1 [Reference compound A, reference compound]
measured.property: inhibition at 5 mg/kg
val: 0

----------
Test system: platelet aggregation by ADP
protocol.notes: inhibiting action on platelet aggregation by ADP (ADP TEST), plasma of orally treated rats
Type: in vivo, Wistar rats
settings: Rattus norvegicus, po, 3 h, read-out: Percentage inhibition of platelet aggregation (ADP test)
The following compounds are listed with their measured inhibition at 100 mg/kg values.
measured.property: inhibition at 100 mg/kg

compound: O=C1C=C2CN(Cc3ccccc3Cl)CCC2S1 (centres unmarked) [Derivative 1]
val: 84.1%

compound: O=C1C=C2CN(Cc3ccc(Cl)cc3)CCC2S1 (centres unmarked) [Derivative 3]
val: 83.6%

compound: Cc1ccccc1CN1CCC2SC(=O)C=C2C1 (centres unmarked) [Derivative 4]
val: 82.9%

compound: O=C1C=C2CN(Cc3ccccc3Br)CCC2S1 (centres unmarked) [Derivative 9]
val: 84%

compound: O=C1C=C2CN(Cc3ccccc3)CCC2S1 (centres unmarked) [Derivative 2]
val: 83.7%

----------
Collected inhibition at 12.5 mg/kg values appear next to each entry.
Tested on: platelet aggregation by ADP
protocol.notes: inhibiting action on platelet aggregation by ADP (ADP TEST), plasma of orally treated rats
Type: in vivo, Wistar rats
settings: Rattus norvegicus, 12.5 mg/kg oral, single dose, 3 hours after treatment, relative to control, read-out: Percentage inhibition of platelet aggregation (ADP test)
Description: A sample of blood is taken from the jugular vein of Wistar rats, which have previously been treated with the compound to be tested. […] 0.4 ml. of plasma is treated in a siliconised tube provided with a bar magnet which is also siliconised. The tube is introduced into an aggregometer connected to an apparatus with which variations in optical density can be recorded. […]
measured.property: inhibition at 12.5 mg/kg

compound: Clc1ccccc1CN1CCc2sccc2C1 [Reference compound A, reference compound]
val: 0%

compound: CCC(c1ccccc1Cl)N1CCC2SC(=O)C=C2C1 (stereo not drawn) [Derivative 6]
val: 83%

compound: CC(c1ccccc1Cl)N1CCC2SC(=O)C=C2C1 (stereo not drawn) [Derivative 5]
val: 82%

compound: O=C1C=C2CN(Cc3ccccc3[N+](=O)[O-])CCC2S1 (stereo not drawn) [Derivative 8]
val: 82.8%

compound: N#Cc1ccccc1CN1CCC2SC(=O)C=C2C1 (stereo not drawn) [Derivative 7]
val: 82.7%

compound: N#Cc1ccccc1CN1CCc2sccc2C1 [Reference compound B, reference compound]
val: 0%

----------
Tested on: platelet aggregation by ADP
protocol.notes: inhibiting action on platelet aggregation by ADP (ADP TEST), plasma of orally treated rats
Format: in vivo, Wistar rats
settings: Rattus norvegicus, po, 3 h, read-out: Percentage inhibition of platelet aggregation (ADP test)
measured.property: inhibition at 5 mg/kg

compound: O=C1C=C2CN(Cc3ccccc3Cl)CCC2S1 (centres unmarked)
measured.property: inhibition at 5 mg/kg
val: 51%
//
compound: Cc1ccccc1CN1CCC2SC(=O)C=C2C1 (centres unmarked)
measured.property: inhibition at 5 mg/kg
val: 48%
//
compound: O=C1C=C2CN(Cc3ccc(Cl)cc3)CCC2S1 (centres unmarked)
measured.property: inhibition at 5 mg/kg
val: 48.1%
//
compound: O=C1C=C2CN(Cc3ccccc3)CCC2S1 (centres unmarked)
measured.property: inhibition at 5 mg/kg
val: 47.8%
//
compound: O=C1C=C2CN(Cc3ccccc3Br)CCC2S1 (centres unmarked)
measured.property: inhibition at 5 mg/kg
val: 48.4%

----------
Examples of molecules with documented inhibition at 12.5 mg/kg follow.
Tested on: platelet aggregation by collagen
protocol.notes: inhibiting action on platelet aggregation by collagen (COLLAGEN TEST), plasma of orally treated rats
Type: in vivo, Wistar rats
settings: Rattus norvegicus, 12.5 mg/kg oral, single dose, 3 hours after treatment, relative to control, read-out: Percentage inhibition of platelet aggregation (collagen test)
measured.property: inhibition at 12.5 mg/kg (%)

molecule: CC(c1ccccc1Cl)N1CCC2SC(=O)C=C2C1 (stereo not drawn) [Derivative 5]
val: 44.8
//
molecule: O=C1C=C2CN(Cc3ccccc3[N+](=O)[O-])CCC2S1 (stereo not drawn) [Derivative 8]
val: 44.6
//
molecule: CCC(c1ccccc1Cl)N1CCC2SC(=O)C=C2C1 (stereo not drawn) [Derivative 6]
val: 44.4
//
molecule: N#Cc1ccccc1CN1CCc2sccc2C1 [Reference compound B, reference compound]
val: 0
//
molecule: N#Cc1ccccc1CN1CCC2SC(=O)C=C2C1 (stereo not drawn) [Derivative 7]
val: 44.5
//
molecule: Clc1ccccc1CN1CCc2sccc2C1 [Reference compound A, reference compound]
val: 0

----------
Test system: platelet aggregation by collagen
protocol.notes: inhibiting action on platelet aggregation by collagen (COLLAGEN TEST), plasma of orally treated rats
Type: in vivo, Wistar rats
settings: Rattus norvegicus, po, 3 h, read-out: Percentage inhibition of platelet aggregation (collagen test)
Attribute: inhibition at 12.5 mg/kg
measured.property: inhibition at 12.5 mg/kg (%)

compound: O=C1C=C2CN(Cc3ccc(Cl)cc3)CCC2S1 (centres unmarked)
measured.property: inhibition at 12.5 mg/kg
val: 44.9

compound: O=C1C=C2CN(Cc3ccccc3Cl)CCC2S1 (centres unmarked)
measured.property: inhibition at 12.5 mg/kg
val: 46.8

compound: O=C1C=C2CN(Cc3ccccc3Br)CCC2S1 (centres unmarked)
measured.property: inhibition at 12.5 mg/kg
val: 44.9

compound: O=C1C=C2CN(Cc3ccccc3)CCC2S1 (centres unmarked)
measured.property: inhibition at 12.5 mg/kg
val: 44.2

compound: Cc1ccccc1CN1CCC2SC(=O)C=C2C1 (centres unmarked)
measured.property: inhibition at 12.5 mg/kg
val: 45.2
